Test system: HRV 71
Test: Cytopathic effect (CPE) inhibition assay
Type: cell-based, human rhinovirus
Settings: Human rhinovirus sp., 72 h; host cell HeLa, 3 days, MEM/2% FBS, MTT assay; read-out: EC50 HRV 71

COMPOUND | EC50
CSCCC(=O)C(=O)NC12C(=O)c3ccccc3C1(O)Oc1cc(C(C)C)ccc12 (stereo not shown) | > 10 µg/mL
CC(C)c1ccc2c(c1)OC1(O)c3ccccc3C(=O)C21NC(=O)C(=O)N(C)C (stereo not shown) | > 10 µg/mL
CCCC(=O)C(=O)NC12C(=O)c3cccc([N+](=O)[O-])c3C1(O)Oc1cc(C(C)C)ccc12 (stereo not shown) | > 10 µg/mL
CC(C)c1ccc2c(c1)OC1(O)c3c(cccc3[N+](=O)[O-])C(=O)C21NC(=O)C(=O)c1ccccc1 (stereo not shown) | > 10 µg/mL
CCCC(=O)C(=O)NC12C(=O)c3ccccc3C1(O)Oc1cc(C(C)C)ccc12 (stereo not shown) | > 8.49 µg/mL
CC(=O)C(=O)NC12C(=O)c3ccccc3C1(O)Oc1cc(C)c(C)cc12 (stereo not shown) | > 8.87 µg/mL
CC(C)CC(=O)C(=O)NC12C(=O)c3cccc([N+](=O)[O-])c3C1(O)Oc1cc(C(C)C)ccc12 (stereo not shown) | > 10 µg/mL

====

Here, each record is paired with measured CC50 data.
Test: in vitro
Conditions: human

COMPOUND | CC50
CCNC(=O)OC12C(=O)c3ccccc3C1(OC)Oc1cc(C(C)C)ccc12 (stereo not shown) | > 10 µg/mL
CCCC(=O)C(=O)NC12C(=O)c3c(N)cccc3C1(O)Oc1cc(C(C)C)ccc12 (stereo not shown) | > 10 µg/mL
Cc1cc2c(cc1C)C1(NC(=O)C(=O)c3c[nH]c4ccccc34)C(=O)c3ccccc3C1(O)O2 (stereo not shown) | 8.41 µg/mL
CC(=O)C(=O)NC12C(=O)c3ccccc3C1(O)Oc1cc(C)c(C)cc12 (stereo not shown) | 8.87 µg/mL
CC(C)c1ccc2c(c1)OC1(O)c3c(cccc3[N+](=O)[O-])C(=O)C21NC(=O)C(=O)c1ccccc1 (stereo not shown) | > 10 µg/mL
CC(C)c1ccc2c(c1)OC1(O)c3ccccc3C(=O)C21NC(N)=S (stereo not shown) | > 10 µg/mL
CC(C)CC(=O)C(=O)NC12C(=O)c3c(N)cccc3C1(O)Oc1cc(C(C)C)ccc12 (stereo not shown) | > 10 µg/mL
CCOC(=O)C(=O)NC12C(=O)c3c(N)cccc3C1(O)Oc1cc(C(C)C)ccc12 (stereo not shown) | > 10 µg/mL
COc1ccc(/C=C/C(=O)C(=O)NC23C(=O)c4ccccc4C2(O)Oc2cc(C(C)C)ccc23)cc1OC (stereo not shown) | > 10 µg/mL
CC(C)c1ccc2c(c1)OC1(O)c3ccccc3C(=O)C21NC(=O)C(=O)N(C)C (stereo not shown) | > 10 µg/mL
CC(C)c1ccc2c(c1)OC1(O)c3c(cccc3[N+](=O)[O-])C(=O)C21NC(=O)C(=O)c1c[nH]c2ccccc12 (stereo not shown) | > 10 µg/mL
CC(C)c1ccc2c(c1)OC1(O)c3c(cccc3[N+](=O)[O-])C(=O)C21NC(=O)C(=O)CCc1ccccc1 (stereo not shown) | 4.8 µg/mL
CC(C)c1ccc2c(c1)OC1(O)c3ccccc3C(=O)C21NC(=O)C(=O)c1ccco1 (stereo not shown) | > 10 µg/mL
CC(C)c1ccc2c(c1)OC1(O)c3ccccc3C(=O)C21NC(=O)C(=O)c1c[nH]c2ccccc12 (stereo not shown) | 7.91 µg/mL
CC(=O)C(=O)NC12C(=O)c3c(N)cccc3C1(O)Oc1cc(C(C)C)ccc12 (stereo not shown) | > 10 µg/mL
CC(C)c1ccc2c(c1)OC1(O)c3ccccc3C(=O)C21NC#N (stereo not shown) | > 10 µg/mL
